ASSAYED_SYSTEM: recombinant human MMP-13 (Homo sapiens, UniProt P45452)
Construct: made in house; host or cells: baculovirus (pBlueBac4 / Bac-N-Blue; virus made in Sf9), expressed in High-Five insect cells; culture supernatant used
MEASUREMENT_DESCRIPTION: Assay of MMP-13 inhibiting activity (fluorogenic peptide substrate)
Format: biochemical
CONDITION_NOTES: Table 10; 37° C., 2 hours
Strictly below 400 nM in IC50: MET. Otherwise: NOT MET.

Query block: Determine if CC(=O)SC1CC(=O)N(Cc2ccc(Sc3ccccc3)cc2)C1 (stereo not shown) shows IC50 strictly lower than 400 nM.
Result block: MET

Query block: Determine if O=C1CC(S)CN1Cc1ccc(OCc2ccccc2)cc1 (stereo not shown) shows IC50 strictly lower than 400 nM.
Result block: MET

Query block: Determine if O=C1CC(S)CN1CCc1ccc(Oc2ccccc2)cc1 (stereo not shown) shows IC50 strictly lower than 400 nM.
Result block: NOT MET

Query block: Determine if CC(=O)SC1CC(=O)N(Cc2ccc(Cc3ccccc3)cc2)C1 (stereo not shown) shows IC50 strictly lower than 400 nM.
Result block: NOT MET

Query block: Determine if O=C1CC(S)CN1Cc1ccc(S(=O)(=O)c2ccccc2)cc1 (stereo not shown) shows IC50 strictly lower than 400 nM.
Result block: NOT MET

Query block: Determine if CC(=O)SC1CC(=O)N(C(=O)c2ccc(Oc3ccccc3)cc2)C1 (stereo not shown) shows IC50 strictly lower than 400 nM.
Result block: NOT MET

Query block: Determine if O=C1CC(S)CN1Cc1ccc(Sc2ccccc2)cc1 (stereo not shown) shows IC50 strictly lower than 400 nM.
Result block: MET

Query block: Determine if O=C1CC(S)CN1Cc1ccc(CCc2ccccc2)cc1 (stereo not shown) shows IC50 strictly lower than 400 nM.
Result block: MET

Query block: Determine if CC(=O)SC1CC(=O)N(Cc2ccc(COc3ccccc3)cc2)C1 (stereo not shown) shows IC50 strictly lower than 400 nM.
Result block: NOT MET

Data credit: patent US6953789B2
